Values from patent US20230091225A1

Record form. Attribute: inhibition at 0.1 µM. Fill in for each entry.
biological target: androgen receptor (AR) (Homo sapiens); test: Degradation of androgen receptor (AR) protein in VCaP cells by ELISA; type: cell-based; conditions: percentage of degraded AR at 100 nM, VCaP cells, 16 h, ELISA; read-out: % degradation

Value of measured inhibition at 0.1 µM for the entry Cc1ncsc1-c1ccc(C2(NC(=O)[C@H]3C[C@@H](O)CN3C(=O)[C@@H](NC(=O)COCCCCC#Cc3ccc(C(=O)N[C@H]4C(C)(C)[C@H](Oc5ccc(C#N)c(Br)c5)C4(C)C)cc3)C(C)(C)C)CC2)cc1 : > 80%

Value of measured inhibition at 0.1 µM for the entry Cc1ncsc1-c1ccc([C@H](C)NC(=O)[C@@H]2C[C@@H](O)CN2C(=O)[C@@H](NC(=O)COCCCCC#Cc2ccc3c(n2)CN([C@H]2C(C)(C)[C@H](Oc4ccc(C#N)c(Cl)c4)C2(C)C)C3=O)C(C)(C)C)cc1 : 25 to 49%

Value of measured inhibition at 0.1 µM for the entry CC(=O)O[C@@H]1C[C@H](C(=O)NC2(c3ccc(-c4scnc4C)cc3)CC2)N(C(=O)[C@@H](NC(=O)COCCCCC#Cc2ccc(C(=O)N[C@H]3C(C)(C)[C@H](Oc4ccc(C#N)c(Br)c4)C3(C)C)cc2)C(C)(C)C)C1 : 25 to 49%

Value of measured inhibition at 0.1 µM for the entry N#Cc1ccc(O[C@H]2CC[C@H](N3Cc4nc(N5CCC(CN6CCN(c7cc8c(cc7F)C(=O)N(C7CCC(=O)NC7=O)C8)CC6)CC5)ccc4C3=O)CC2)cc1Cl (stereo partly drawn) : 50 to 79%

Value of measured inhibition at 0.1 µM for the entry [2H]C([2H])([2H])N(C(=O)c1ccc(C#CCCCNC(=O)C2(C(=O)N[C@H](C(=O)N3C[C@H](O)C[C@H]3C(=O)N[C@@H](C)c3ccc(-c4scnc4C)cc3)C(C)(C)C)CC2)cc1)[C@H]1C(C)(C)[C@H](Oc2ccc(C#N)c(Cl)c2)C1(C)C : 25 to 49%

Value of measured inhibition at 0.1 µM for the entry [2H]C([2H])([2H])Oc1cc(O[C@H]2CC[C@H](NC(=O)c3cnc(N4CCC(CN5CCC6(CC5)CN(c5ccc7c(c5)C(=O)N(C5CCC(=O)NC5=O)C7=O)C6)CC4)nn3)CC2)ccc1C#N (stereo partly drawn) : > 80%

Value of measured inhibition at 0.1 µM for the entry [2H]C([2H])([2H])N(C(=O)c1ccc(N2CCC(CN3CCN(c4cc5c(cc4F)C(=O)N(C4CCC(=O)NC4=O)C5)CC3)CC2)nc1)[C@H]1C(C)(C)[C@H](Oc2ccc(C#N)c(Cl)c2)C1(C)C (stereo partly drawn) : > 80%

Value of measured inhibition at 0.1 µM for the entry CC(=O)O[C@@H]1C[C@@H](C(=O)N[C@@H](C)c2ccc(-c3scnc3C)cc2)N(C(=O)[C@@H](NC(=O)COCCCCCNc2ccc(NC(=O)N[C@H]3C(C)(C)[C@H](Oc4ccc(C#N)c(Cl)c4)C3(C)C)cc2)C(C)(C)C)C1 : < 25%

Value of measured inhibition at 0.1 µM for the entry CC1(C)[C@H](Oc2ccc(C#N)c(Cl)c2)C(C)(C)[C@H]1N1Cc2nc(N3CCC(CN4CCN(c5cc6c(cc5F)C(=O)N(C5CCC(=O)NC5=O)C6)CC4)CC3)ccc2C1=O (stereo partly drawn) : 25 to 49%

###

biological target: androgen receptor (AR) (Homo sapiens, UniProt P10275); assay: Degradation of androgen receptor (AR) protein in VCaP cells by ELISA; format: cell-based; conditions: AR degradation, VCaP cells, 16 h, ELISA, Table 3-1
Sequence (P10275 whole entry): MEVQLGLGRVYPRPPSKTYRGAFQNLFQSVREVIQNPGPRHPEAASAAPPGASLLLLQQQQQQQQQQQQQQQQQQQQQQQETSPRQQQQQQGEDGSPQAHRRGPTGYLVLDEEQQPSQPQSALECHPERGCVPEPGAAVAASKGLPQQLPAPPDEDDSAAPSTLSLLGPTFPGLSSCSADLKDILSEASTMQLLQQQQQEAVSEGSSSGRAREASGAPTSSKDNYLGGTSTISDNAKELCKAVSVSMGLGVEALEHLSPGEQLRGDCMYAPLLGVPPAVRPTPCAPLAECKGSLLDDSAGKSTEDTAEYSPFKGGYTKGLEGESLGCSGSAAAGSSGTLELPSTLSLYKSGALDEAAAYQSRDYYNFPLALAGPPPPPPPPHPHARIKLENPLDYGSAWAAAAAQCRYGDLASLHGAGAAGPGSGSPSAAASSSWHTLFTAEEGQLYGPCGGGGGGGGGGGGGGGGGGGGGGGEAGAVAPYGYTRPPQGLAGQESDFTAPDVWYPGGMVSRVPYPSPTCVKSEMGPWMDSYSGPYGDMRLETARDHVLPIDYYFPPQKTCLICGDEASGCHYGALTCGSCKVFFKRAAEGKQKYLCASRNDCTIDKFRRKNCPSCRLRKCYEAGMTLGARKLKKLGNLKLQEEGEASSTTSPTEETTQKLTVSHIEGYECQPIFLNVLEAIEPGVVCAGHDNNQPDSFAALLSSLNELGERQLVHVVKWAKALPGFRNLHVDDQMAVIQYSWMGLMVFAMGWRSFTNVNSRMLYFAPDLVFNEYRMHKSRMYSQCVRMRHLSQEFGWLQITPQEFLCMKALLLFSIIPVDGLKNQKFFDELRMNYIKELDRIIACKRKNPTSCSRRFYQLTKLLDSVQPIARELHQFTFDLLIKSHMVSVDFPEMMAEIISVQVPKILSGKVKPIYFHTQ
OBSERVED PROPERTY: Dmax (%)

Worked set:
{"COMPOUND": "N#Cc1ccc(OC2CCC(NC(=O)c3ncn(C4CCC(CN5CCC6(CC5)CN(c5ccc7c(c5)C(=O)N(C5CCC(=O)NC5=O)C7=O)C6)CC4)n3)CC2)cc1Cl (stereo not shown)", "OBSERVED PROPERTY": "Dmax (%)", "RESULT": "++++ (>80%)"}
{"COMPOUND": "CC1(C)[C@H](Oc2ccc(C#N)c(Cl)c2)C(C)(C)[C@H]1N1Cc2nc(C#CC3CCC(N4CC5(CCN(c6ccc7c(c6)C(=O)N(C6CCC(=O)NC6=O)C7=O)CC5)C4)CC3)ccc2C1=O (stereo partly shown) [Compound 376]", "OBSERVED PROPERTY": "Dmax (%)", "RESULT": "++ (60%-40%)"}
{"COMPOUND": "CC1(C)[C@H](Oc2ccc(C#N)c(Cl)c2)C(C)(C)[C@H]1N1Cc2nc(C#CC3CCC(N4CCC5(CCN(c6cc7c(cc6F)C(=O)N(C6CCC(=O)NC6=O)C7=O)C5)C4)CC3)ccc2C1=O (stereo partly shown) [Compound 366]", "OBSERVED PROPERTY": "Dmax (%)", "RESULT": "++++ (>80%)"}
{"COMPOUND": "CC1(C)[C@H](Oc2ccc(C#N)c(Cl)c2)C(C)(C)[C@H]1N1Cc2nc(C#CC3CCC(N4CC5(CCN(c6ccc7c(c6)C(=O)N(C6CCC(=O)NC6=O)C7=O)CC5)C4)CC3)ccc2C1=O (stereo partly shown) [Compound 377]", "OBSERVED PROPERTY": "Dmax (%)", "RESULT": "++++ (>80%)"}
{"COMPOUND": "N#Cc1ccc(OC2CCC(NC(=O)c3cnc(N4CCN(C5CC6(CCN(c7ccc8c(c7)C(=O)N(C7CCC(=O)NC7=O)C8=O)CC6)C5)CC4)cn3)CC2)cc1Cl (stereo not shown)", "OBSERVED PROPERTY": "Dmax (%)", "RESULT": "++++ (>80%)"}
{"COMPOUND": "CC1(C)[C@H](Oc2ccc(C#N)c(Cl)c2)C(C)(C)[C@H]1N1Cc2nc(C#CC3CCC(N4CCC5(CCN(c6ccc7c(c6)C(=O)N(C6CCC(=O)NC6=O)C7=O)C5)C4)CC3)ccc2C1=O (stereo partly shown)", "OBSERVED PROPERTY": "Dmax (%)", "RESULT": "++++ (>80%)"}
{"COMPOUND": "CC1(C)[C@H](Oc2ccc(C#N)c(Cl)c2)C(C)(C)[C@H]1N1Cc2nc(C#CC3CCC(N4CC5(CCN(c6cc7c(cc6F)C(=O)N(C6CCC(=O)NC6=O)C7=O)CC5)C4)CC3)ccc2C1=O (stereo partly shown) [Compound 379]", "OBSERVED PROPERTY": "Dmax (%)", "RESULT": "++++ (>80%)"}
{"COMPOUND": "CC1(C)[C@H](Oc2ccc(C#N)c(Cl)c2)C(C)(C)[C@H]1N1Cc2nc(C#CC3CCC(N4CC5(CCN(c6cc7c(cc6F)C(=O)N(C6CCC(=O)NC6=O)C7=O)C5)C4)CC3)ccc2C1=O (stereo partly shown) [Compound 370]", "OBSERVED PROPERTY": "Dmax (%)", "RESULT": "++ (60%-40%)"}

Value of measured Dmax (%) for the entry CC1(C)C(Oc2ccc(C#N)c(Cl)c2)C(C)(C)C1N1Cc2nc(C#CC3CCC(N4CC5CN(c6ccc7c(c6)C(=O)N([C@@H]6CCC(=O)NC6=O)C7=O)CC5C4)CC3)ccc2C1=O (stereo partly shown) : ++++ (>80%)

###

biological target: androgen receptor (AR) (Homo sapiens, UniProt P10275); assay: Degradation of androgen receptor (AR) protein in VCaP cells by ELISA; format: cell-based; settings: AR degradation, VCaP cells, 16 h, ELISA, Table 3-1; read-out: DC50
OBSERVED PROPERTY: DC50

Value of measured DC50 for the entry CC1(C)[C@H](Oc2ccc(C#N)c(Cl)c2)C(C)(C)[C@H]1N1Cc2nc(N3CCC(CN4CCN(c5ccc6c(c5)C(=O)N(C5CCC(=O)NC5=O)C6=O)CC4)CC3)ncc2C1=O (stereo partly drawn) : 10 to 100 nM

Value of measured DC50 for the entry N#Cc1ccc(O[C@H]2CC[C@H](NC(=O)c3cnc(N4CCC5(CN(CC6CCN(c7cc8c(cc7F)C(=O)N(C7CCC(=O)NC7=O)C8=O)CC6)C5)C4)cn3)CC2)cc1Cl (stereo partly drawn) : < 10 nM

Value of measured DC50 for the entry C[C@H]1CN(c2cnc(C(=O)N[C@H]3CC[C@H](Oc4ccc(C#N)c(Cl)c4)CC3)cn2)CCN1C[C@H]1[C@@H]2CN(c3cc4c(cc3F)C(=O)N(C3CCC(=O)NC3=O)C4=O)C[C@@H]21 (stereo partly drawn) : 10 to 100 nM

###

molecular target: androgen receptor (AR) (Homo sapiens, UniProt P10275); assay: Degradation of androgen receptor (AR) protein in VCaP cells by ELISA; type: cell-based; conditions: AR degradation, VCaP cells, 16 h, ELISA, Table 3-1; read-out: DC50
OBSERVED PROPERTY: DC50

Value of measured DC50 for the entry C[C@@H]1CN(C[C@@H]2[C@H]3CN(c4cc5c(cc4F)C(=O)N(C4CCC(=O)NC4=O)C5=O)C[C@@H]23)CCN1c1ccc(C(=O)N[C@H]2CC[C@H](Oc3ccc(C#N)c(Cl)c3)CC2)nn1 (some centres unmarked) : < 10 nM

Value of measured DC50 for the entry CC1(C)[C@H](Oc2ccc(C#N)c(Cl)c2)C(C)(C)[C@H]1N1Cc2nc(C#CC3CCC(N4CCC5(CN(c6cc7c(cc6F)C(=O)N(C6CCC(=O)NC6=O)C7=O)C5)C4)CC3)ccc2C1=O (some centres unmarked) [Compound 375] : < 10 nM

Value of measured DC50 for the entry N#Cc1ccc(O[C@H]2CC[C@H](NC(=O)c3cnc(N4CC5(CCN(CC6CCN(c7ccc8c(c7)C(=O)N(C7CCC(=O)NC7=O)C8=O)CC6)CC5)C4)cn3)CC2)cc1Cl (some centres unmarked) : < 10 nM

Value of measured DC50 for the entry N#Cc1ccc(O[C@H]2CC[C@H](NC(=O)c3cnc(N4CCC(CN5CCC6(CC5)CN(c5ccc7c(c5)C(=O)N(C5CCC(=O)NC5=O)C7=O)C6)CC4)nc3)CC2)cc1Cl (some centres unmarked) : < 10 nM

Value of measured DC50 for the entry N#Cc1ccc(O[C@H]2CC[C@H](NC(=O)c3cnc(N4CC5(CN(CC6CCN(c7cc8c(cc7F)C(=O)N(C7CCC(=O)NC7=O)C8=O)CC6)C5)C4)cn3)CC2)cc1Cl (some centres unmarked) : < 10 nM

Value of measured DC50 for the entry N#Cc1ccc(O[C@H]2CC[C@H](NC(=O)c3ccc(N4CCN(C5CC6(CCN(c7ccc8c(c7)C(=O)N(C7CCC(=O)NC7=O)C8=O)CC6)C5)CC4)nn3)CC2)cc1Cl (some centres unmarked) : < 10 nM

Value of measured DC50 for the entry CC1(C)[C@H](Oc2ccc(C#N)c(Cl)c2)C(C)(C)[C@H]1N1Cc2nc(C#CC3CCC(N4CCC5(CN(c6cc7c(cc6F)C(=O)N(C6CCC(=O)NC6=O)C7=O)C5)C4)CC3)ccc2C1=O (some centres unmarked) [Compound 374] : < 10 nM

Value of measured DC50 for the entry N#Cc1ccc(O[C@H]2CC[C@H](NC(=O)c3ncc(N4CC5(CCN(CC6CCN(c7cc8c(cc7F)C(=O)N(C7CCC(=O)NC7=O)C8=O)CC6)CC5)C4)cn3)CC2)cc1Cl (some centres unmarked) : > 300 nM

Value of measured DC50 for the entry CC1(C)[C@H](Oc2ccc(C#N)c(Cl)c2)C(C)(C)[C@H]1N1Cc2nc(C#CC3CCC(N4CC5(CCN(c6cc7c(cc6F)C(=O)N(C6CCC(=O)NC6=O)C7=O)C5)C4)CC3)ccc2C1=O (some centres unmarked) [Compound 370] : 100 to 300 nM

Value of measured DC50 for the entry CC1(C)[C@H](Oc2ccc(C#N)c(Cl)c2)C(C)(C)[C@H]1N1Cc2nc(C#CC3CCC(N4CC5CC4CN5c4ccc5c(c4)C(=O)N(C4CCC(=O)NC4=O)C5=O)CC3)ccc2C1=O (single isomer, unassigned) [Compound 353] : > 300 nM

Value of measured DC50 for the entry CC1(C)[C@H](Oc2ccc(C#N)c(Cl)c2)C(C)(C)[C@H]1N1Cc2nc(C#CC3CCC(N4CC5(CN(c6cc7c(cc6F)C(=O)N(C6CCC(=O)NC6=O)C7=O)C5)C4)CC3)ccc2C1=O (some centres unmarked) : 10 to 100 nM
